# EXPERIMENTAL TARGET: cellular Src tyrosine kinase (c-Src) (human, UniProt P12931 1-536, limits assumed)
# ASSAY EXPLANATION: cell-based or functional assay
# if measured % Inhibition of control, c-Src tyrosine kinase activity, cell-free assay, peptide at 50 µM < 3 % inhibition: yes (1)  # else: no (0)

[[record]]
binder = "RSRARNPLYR [RSRARNPLYR peptide]"
label_class = "no (0)"


% Inhibition of control, c-Src tyrosine kinase activity, cell-free assay, peptide at 50 µM under 3 % inhibition? Item: RSKAKNPLYR [RSKAKNPLYR peptide]
no (0)

Does the reported % Inhibition of control, c-Src tyrosine kinase activity, cell-free assay, peptide at 50 µM of WQTGT [WQTGT peptide] stay below 3 % inhibition?
yes (1)

Find out if reported % Inhibition of control, c-Src tyrosine kinase activity, cell-free assay, peptide at 50 µM for KEKLKNPLFK [KEKLKNPLFK peptide] is less than 3 % inhibition
no (0)

Regarding RARAKNPLYK [RARAKNPLYK peptide] , kindly confirm whether its % Inhibition of control, c-Src tyrosine kinase activity, cell-free assay, peptide at 50 µM is beneath 3 % inhibition.
no (0)

% Inhibition of control, c-Src tyrosine kinase activity, cell-free assay, peptide at 50 µM under 3 % inhibition? Item: RSKAKWQTGTNPLYR [RSKAKWQTGTNPLYR peptide]
no (0)

Input NPLYR [NPLYR peptide] ; condition: % Inhibition of control, c-Src tyrosine kinase activity, cell-free assay, peptide at 50 µM strictly below 3 % inhibition. Does it hold?
yes (1)
